- TESTED_ON: LARG-stimulated RhoA nucleotide binding (Homo sapiens)
- Type: biochemical
- ASSAY_CONTEXT: read-out: IC50 (μM) [TR-GTPγS]; BODIPY-TR-GTPγS 500 nM, LARG 100 nM, RhoA (C189S) 2 μM, 20 minutes
RESULT_TYPE: IC50 (µM)
Numbers only; they are read as µM.

Q) Entry `O=c1oc2cc(O)ccc2cc1-c1csc(-c2ccc(-c3ccccc3)cc2)n1` has what IC50?
A) 65.1

---

- TESTED_ON: LARG-stimulated RhoA [35S] GTPγS binding (Homo sapiens)
- Sequence (Q9NZN5 765-1138): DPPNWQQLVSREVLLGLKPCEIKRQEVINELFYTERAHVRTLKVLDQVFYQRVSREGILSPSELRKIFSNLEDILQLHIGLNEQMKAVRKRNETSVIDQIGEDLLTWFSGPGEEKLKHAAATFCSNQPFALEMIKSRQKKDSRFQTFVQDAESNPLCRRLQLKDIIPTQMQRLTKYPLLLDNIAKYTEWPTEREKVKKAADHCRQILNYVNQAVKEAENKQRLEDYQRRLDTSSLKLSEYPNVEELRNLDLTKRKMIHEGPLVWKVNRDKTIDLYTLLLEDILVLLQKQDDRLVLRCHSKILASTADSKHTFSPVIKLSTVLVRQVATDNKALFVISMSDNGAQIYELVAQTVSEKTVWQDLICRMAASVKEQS
- ASSAY: LARG-stimulated RhoA [35S] GTPγS guanine nucleotide binding assay
- Format: biochemical
- ASSAY_CONTEXT: read-out: IC50 (μM) [GTPγS35]; LARG 2 nM, RhoA (C189S) 500 nM, 25 minute time point
RESULT_TYPE: IC50 (µM)
Please respond with the number in µM and leave the unit unwritten.

Q) Any idea what its IC50 is? The molecule is O=c1oc2cc(O)ccc2cc1-c1csc(-c2ccc(-c3ccccc3)cc2)n1 [CCG-7167]
A) 4.2

---

- TESTED_ON: LARG-stimulated RhoA [35S] GTPγS binding (Homo sapiens, UniProt Q9NZN5)
- Sequence (Q9NZN5 765-1138): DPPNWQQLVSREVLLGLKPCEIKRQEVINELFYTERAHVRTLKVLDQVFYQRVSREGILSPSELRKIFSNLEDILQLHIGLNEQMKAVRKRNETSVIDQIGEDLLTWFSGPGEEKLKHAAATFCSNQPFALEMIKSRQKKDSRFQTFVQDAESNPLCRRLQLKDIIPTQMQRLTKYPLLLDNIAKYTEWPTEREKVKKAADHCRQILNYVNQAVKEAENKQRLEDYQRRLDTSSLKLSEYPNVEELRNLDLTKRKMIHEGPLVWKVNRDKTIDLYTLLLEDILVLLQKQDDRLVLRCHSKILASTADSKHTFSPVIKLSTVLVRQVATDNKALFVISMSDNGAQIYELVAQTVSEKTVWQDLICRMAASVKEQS
- ASSAY: LARG-stimulated RhoA [35S] GTPγS guanine nucleotide binding assay
- Type: biochemical
- ASSAY_CONTEXT: LARG 2 nM, RhoA (C189S) 500 nM, 25 minute time point
Recorded Hill Slope [GTPγS35] values for a group of molecules are listed next.
Please give only the number in your answer, with no unit.

Examples from the recorded data:
O=c1oc2cc(O)ccc2cc1-c1csc(-c2ccc(-c3ccccc3)cc2)n1: -2.2
O=C1NC(=S)NC(=O)C1=Cc1ccc(-c2ccc(S(=O)(=O)Nc3nccs3)cc2)o1: -1.1
Cc1cccc(NCC(=O)N/N=C\c2c(Br)cc(Br)c(O)c2Br)c1: -7.1

Q) So what does the record say about Hill Slope [GTPγS35] for `N=C1S/C(=C\c2ccc(-c3ccccc3[N+](=O)[O-])o2)C(=O)N1c1ccc2c(c1)OCO2` ?
A) -1.8
